assayedSystem: Gβγ (Homo sapiens, UniProt P59768+P62873)
Sequence (P62873 2-340 limits assumed): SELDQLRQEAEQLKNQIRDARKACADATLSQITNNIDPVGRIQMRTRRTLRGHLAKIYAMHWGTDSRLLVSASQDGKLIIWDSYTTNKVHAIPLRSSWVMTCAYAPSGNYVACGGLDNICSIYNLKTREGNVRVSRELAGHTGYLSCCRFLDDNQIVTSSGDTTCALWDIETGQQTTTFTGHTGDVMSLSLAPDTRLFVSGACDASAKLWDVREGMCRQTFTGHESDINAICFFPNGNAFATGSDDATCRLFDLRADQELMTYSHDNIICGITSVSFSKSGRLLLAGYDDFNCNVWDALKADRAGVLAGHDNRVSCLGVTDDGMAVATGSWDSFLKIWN
Sequence (P59768 2-68 limits assumed): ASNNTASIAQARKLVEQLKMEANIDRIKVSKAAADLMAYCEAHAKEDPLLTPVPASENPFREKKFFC
Type: binding
pKd: −log10 of the molar value. Ends that are not written are not given here.
We begin with a simple list: items and their reported pKd.
property: pKd

RYLESWGAAKPFAHLHHRDS [AC2 C1b (495-514)] ... 8.33
MTRYLESWGAAKPFAHL [AC2 C1b (493-509), reference compound] ... 8.57
ISLLFYNKVLEKEYRATALPAFKYY [AC2 C1b (578-602)] ... 6.99
QEHAQEPERQYMHIGTMVEFAYALVGK [QEHA C2 (956-982), reference compound] ... 7.86
